Tested on: DeltatarO mutant
Assay: S. aureus survival, RN4220 and DeltatarO strains – OD600, teichoic acid synthesis inhibitors, primary screen (AID 463173)
Conditions: S. aureus RN4220 wild type/DeltatarO growth, OD600, 18 h, screened at 18.75 µg/mL (by protocol)
Out of some 52,000 compounds screened, about 4,300 (8.3%) were called active. No stated cut-off is given here; in the data, active means survival mostly below about 52% (no sharp cut-off); inactive means mostly above about 56%. The sample as a whole holds a higher share of actives than the screen did.
I would appreciate it if you answered using one of these outcomes: YES = active, NO = inactive

CCOC(=O)c1ccc(NC2=CC(c3ccc(F)cc3)N(c3ccc(C(=O)OCC)cc3)C2=O)cc1 (centres undefined) = NO
COc1ccc(-n2ncc3c(NCCCOC(C)C)ncnc32)cc1 = YES
Cc1cc(C)cc(NC(=O)CSc2nc(=O)[nH]c3c2CCC3)c1 = NO
Cc1ccc(-n2ncc3c(NCCc4ccccc4)ncnc32)cc1 = NO
COc1ccc(NC(=O)CSc2nnc(NC(=O)Nc3ccccc3)s2)cc1OC = NO

Could you check what this test reported for `Cc1ccc(N2CCN(c3nc4ccccc4c4nnc(C)n34)CC2)c(C)c1` ? NO

Check the results log: what was the call for `Cc1ccc(-c2noc(-c3cccnc3NCc3ccco3)n2)cc1` ? NO

Outcome logged for `CCc1c(C)c2ccc3c(c2oc1=O)CN(Cc1ccccc1)CO3` in this assay: NO

Record request — test call for `Cc1cccc(Oc2ccc3c(c2)Oc2ccccc2NC3=O)c1` NO

* * *

Tested on: DeltatarO mutant
Assay: S. aureus survival, RN4220 and DeltatarO strains – OD600, teichoic acid synthesis inhibitors, primary screen (AID 463173)
Conditions: S. aureus RN4220 wild type/DeltatarO growth, OD600, 18 h, screened at 18.75 µg/mL (by protocol)
In all, about 52,000 compounds went through this assay and about 4,300 (8.3%) were called active. No stated cut-off is given here; in the data, active means survival mostly below about 52% (no sharp cut-off); inactive means mostly above about 56%. For the sample, actives were picked, then their nearest neighbours and some compounds at random.
A correct response names exactly one class from active, inactive

Cc1ccccc1S(=O)(=O)Cc1ccc(C(=O)N2CCN(c3cccc(Cl)c3)CC2)o1 = active
O=C(NC1CCCCC1)c1ccc2c(c1)N(Cc1ccccc1)C(=O)c1ccccc1S2 = active
Cc1ccccc1CN1C(=O)c2ccccc2Sc2ccc(C(=O)NCc3cccs3)cc21 = inactive

Give the logged outcome of this assay for the following compound: O=C(c1ccc(CS(=O)c2ccccc2Cl)o1)N1CCN(c2cccc(C(F)(F)F)c2)CC1 (stereo unspecified) inactive

Could you check what this test reported for `CCOc1ccc(NC(=O)NCCN2CCN(c3ccccc3F)CC2)cc1` ? inactive

Query: recorded result category for `COc1ccc2c(c1)CCc1c(C(=O)Nc3ccccc3C(F)(F)F)noc1-2` in this test inactive

Write down the call the test reported for this compound. Item: `Nc1nc(CC(=O)NN=C2CCCCCC2)cs1` inactive

* * *

Test system: DeltatarO mutant
Assay: S. aureus survival, RN4220 and DeltatarO strains – OD600, teichoic acid synthesis inhibitors, primary screen (AID 463173)
Conditions: S. aureus RN4220 wild type/DeltatarO growth, OD600, 18 h, active compounds read low, screened at 18.75 µg/mL (by protocol)
Out of some 52,000 compounds screened, about 4,300 (8.3%) were called active. This is one part of a sample in which actives are shown more often than they occur.
Readings of survival for the listed compounds
Enter your answer as a number in %; do not include the unit.

Example results:
CC(C)(C)C1CCc2c(sc3nc(-c4cc5cc(Cl)ccc5oc4=O)[nH]c(=O)c23)C1 (stereo not given) = 83
COc1ccc(CNC(=O)CSc2nc(-c3ccc(OC)cc3)cc(C(F)(F)F)n2)cc1 = 83
CCOC(=O)c1c(C)[nH]c(C)c1S(=O)(=O)N1CCCC(C(=O)N2CCN(c3ccccc3F)CC2)C1 (stereo not given) = 84
CN(C)c1ccc(CNC(=O)CCCN2C(=O)CCn3nc(-c4cccn4C)cc32)cc1 = 73

Under DeltatarO mutant: survival value of COC(=O)C(C)Oc1ccc(N2C(=O)c3ccccc3C2=O)cc1 (stereo not given) ? 75

* * *

The following compounds are shown together with reported survival values.
Tested on: DeltatarO mutant
Test: S. aureus survival, RN4220 and DeltatarO strains – OD600, teichoic acid synthesis inhibitors, primary screen (AID 463173)
Conditions: S. aureus RN4220 wild type/DeltatarO growth, OD600, 18 h, active compounds read low, screened at 18.75 µg/mL (by protocol)
Among all 52,000 compounds or so, about 4,300 (8.3%) were called active. The entries come from a sample that favours actives as a whole.
Provide only the numeric value, understood in %.

In the examples that follow, each entry is paired with its recorded survival.
CCCCNc1ccc(-c2nc(-c3ccccn3)no2)cc1[N+](=O)[O-] = 46
CCc1ccc(NC(=O)C(=O)NCC(c2cccnc2)N2CCOCC2)cc1 (stereo not given) = 89
COc1ccc(CCCc2n[nH]c(=S)o2)c(C)c1 = 94
COc1ccc(C(=O)N(c2ccc(OC)cc2)S(=O)(=O)c2ccc3c(c2)n(C)c(=O)n3C)cc1 = 84

Which survival value is on record for `Cc1noc(-c2ccc(NCc3ccccc3)c([N+](=O)[O-])c2)n1` ? 66

# survival lookup, item `COCCNc1ccc(-c2nc(-c3ccncc3)no2)cc1[N+](=O)[O-]` 77

Given CC1CN(C(=O)CCC(=O)NCc2ccc(F)cc2)c2cc(Cl)ccc2O1 (stereo not given) , state its recorded survival. 80

Which survival value belongs to `COCCNc1ccc(-c2nc(-c3ccccn3)no2)cc1[N+](=O)[O-]` ? 43

What does the data say about its survival? Entry: `Cn1c(=O)c(=O)n(C)c2cc(N3CCOCC3)c(NS(=O)(=O)c3ccc(F)c(Cl)c3)cc21` 67

Suppose we examine the compound `O=[N+]([O-])c1cc(-c2nc(-c3cccnc3)no2)ccc1NCc1ccccc1` ; what survival value has been reported? 63

Recorded survival of `CCc1ccc(S(=O)(=O)Nc2cc3c(cc2N2CCOCC2)n(C)c(=O)c(=O)n3C)cc1` , please. 6

Looking for the measured survival of `Cc1ccc(S(=O)(=O)Nc2cc3c(cc2C)n(C)c(=O)c(=O)n3C)cc1` , can you help? -2

Which measured survival value corresponds to `CCOc1ccc(N(C(=O)c2ccccc2F)S(=O)(=O)c2ccc3c(c2)n(C)c(=O)n3C)cc1` ? 47

Field request: survival | item: `COc1ccc(N(C(=O)c2ccccc2)S(=O)(=O)c2ccc3c(c2)n(C)c(=O)n3C)cc1` 89

survival lookup needed for `Cc1ccc(CNc2ccc(-c3nc(-c4ccccn4)no3)cc2[N+](=O)[O-])cc1` , thanks. 104

Given CCCOc1ccc(C2C(=O)N(C3CCCCC3)CC(=O)N2CCc2ccccc2)cc1OC (stereo not given) , state its recorded survival. 86

Give the measured survival of `COC(=O)c1ccccc1NC(=O)CCCn1c(C)c2cnn(-c3ccccc3)c(=O)c2c1C` . 90

GET /values?readout=survival&item= `O=[N+]([O-])c1cc(-c2nc(-c3ccccn3)no2)ccc1NCc1ccccc1` 39

Query (compound): `O=[N+]([O-])c1cc(-c2nc(-c3ccccc3)no2)ccc1NCc1cccnc1` ; field requested: survival 47

Entry under review: CC1CCC(NC(=O)CN2CCC(n3nnc4ccccc43)CC2)CC1 (stereo not given) . Reported survival? 76

So what does the record say about survival for CC(C)CCOc1ccc(C2N=C(N)Nc3nc4ccccc4n32)cc1 (stereo not given) ? -3

Which survival value is on record for `Cn1c(=O)n(C)c2cc(N3CCOCC3)c(NS(=O)(=O)c3ccc(Cl)cc3)cc21` ? 75

Query (compound): COc1cc(C2N=C(N)Nc3nc4ccccc4n32)ccc1OCCC(C)C (stereo not given) ; field requested: survival 68

Please give the measured survival for this compound: `Cn1c(=O)c(=O)n(C)c2cc(N3CCOCC3)c(NS(=O)(=O)c3ccc(Cl)cc3)cc21` -1

* * *

Tested on: DeltatarO mutant
Assay: S. aureus survival, RN4220 and DeltatarO strains – OD600, teichoic acid synthesis inhibitors, primary screen (AID 463173)
Conditions: S. aureus RN4220 wild type/DeltatarO growth, OD600, 18 h, screened at 18.75 µg/mL (by protocol)
In all, about 52,000 compounds went through this assay and about 4,300 (8.3%) were called active. No stated cut-off is given here; in the data, active means survival mostly below about 52% (no sharp cut-off); inactive means mostly above about 56%. Many of the other results were omitted from the sample, so actives are more common in it than they were.
Write down one outcome, taken from class 1 (active), class 0 (inactive)

How was `COc1ccc(Cn2c(=O)c3ccccc3n3c(-c4ccc(C)cc4)nnc23)cc1` classified in this test? class 0

Would you mind telling me which call this test gave COCCn1c(C)cc(O)c(C(c2ccc(F)cc2)N2CCN(c3ccccc3)CC2)c1=O (configuration not stated) ? class 1

Which result was noted for this compound in the test: `NC(=O)CSc1nnnn1C1CCCCC1` class 0

Could you please tell me the result logged for COc1ccc(-c2nc3n(n2)C(c2cccc(C)c2)C(C(N)=O)=C(C)N3)cc1OC (configuration not stated) in this assay? class 0

Entry `COc1ccc(-c2noc(=O)n2Cc2ccccc2)cc1` : call = ? class 0

Hi team, can someone confirm the assay call for `COc1ccc(Cn2c(SC)nc3ccccc32)cc1` ? class 0

Hi team, can someone confirm the assay call for `Cc1ccc(Sc2c(C)nn(-c3ccccc3)c2OC(=O)CC(C)C)cc1` ? class 1
